- Experiment notes: chemical genetic growth profiling, strain panel (AID 1159580);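 also: tested at 20 µM; growth read once vehicle control cultures reached saturation at 30 °C; 1 = growth at the plate median or of vehicle wells; lower values mean less growth of the strain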
- Condition context: S. cerevisiae deletion strains, growth OD, locus YBR229C, strain ROT2, stronger effect = lower value
Among all 5,500 compounds or so, about 2,000 (36%) were called active. Another 18% or so got no clear call; they are omitted. This is one part of the list.
# normalized growth per record follows
The reply should be a number, written without any unit.

[
  {
    "Compound": "CCN(CC)C(=O)c1cccc(C)c1",
    "normalized growth": 1.01
  }
]

Query compound follows.
Quick note, normalized growth for C[N+]1(C)C2CC(OC(=O)[C@@H](CO)c3ccccc3)CC1C1OC12 (stereo not given in full) landed at 1.01
